ASSAY_SYSTEM: T1, TIAM2, Q8IVF5
T1 sequence (Q8IVF5 885-986, limits assumed, looked up): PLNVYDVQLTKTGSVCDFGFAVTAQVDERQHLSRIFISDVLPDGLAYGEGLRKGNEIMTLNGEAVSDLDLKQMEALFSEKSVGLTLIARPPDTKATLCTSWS
TEST_SUMMARY: holdup assay
Design: key: below the threshold = too weak to quantify, mostly under pKd 3.1 to 4
MEASUREMENT_CONTEXT: plain residues with an end cap or a label only (N-terminal biotin on a linker: ado-ado)
PROPERTY_LABEL: pKd

>>> print(df.to_string())
                         binder  reported
0    AEASVACSLC [PTGIR, P43119]      3.75
1   EKCGKEFSEF [PRKACA, P17612]      4.13
2  PTPDLPQTRV [KLHDC7A, Q5VTJ3]      3.86
3  EDPRVEVTQF [SLC22A9, Q8IVM8]      4.15
4    LESTTVGTSV [KARS1, Q15046]      4.05
5    RSSGGDDFWF [KCNV1, Q6PIU1]      4.47
6  IDESKKEWLI [CNTNAP2, Q9UHC6]      3.81
7  VKRNSKETVV [MARCHF3, Q86UD3]      3.73
8   NNNVVKVDSV [MTNR1A, P48039]      3.77
